Biological target: T1, huMAGEB2(1-319), biotinylated full length MAGEB2 protein (human, UniProt O15479 1-319, biotinylated with recombinant BirA (site not stated))
T1 construct: Expressed in E. coli from pET23; N-terminal 6xHis tag removed with caspase 3; also called Biotinylated MAGEB2 full length protein
T1 sequence: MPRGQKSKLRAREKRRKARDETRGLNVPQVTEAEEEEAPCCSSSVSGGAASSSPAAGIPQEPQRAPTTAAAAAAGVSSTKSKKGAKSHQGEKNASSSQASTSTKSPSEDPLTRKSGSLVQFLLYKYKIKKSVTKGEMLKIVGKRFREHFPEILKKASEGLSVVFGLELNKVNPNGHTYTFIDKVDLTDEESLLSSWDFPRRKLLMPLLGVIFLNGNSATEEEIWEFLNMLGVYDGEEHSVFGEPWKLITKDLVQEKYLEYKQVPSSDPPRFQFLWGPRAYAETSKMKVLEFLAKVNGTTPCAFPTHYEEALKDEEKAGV
Experiment: limited antigen FACS; biotinylated full length MAGEB2 on LumAvidin beads; B-cell supernatant
measured-property: binding result

Field: example entries. Status: answers known.
binder	binding result
4A7 (antibody, IgG1, V domains shown, Rabbit monoclonal IgG1) VH: QEQLVESGGGLVQPEGSLTLTCAASGFSFSSSYFMCWVRQAPGKGLEWIACIGVGGSGSTYYANWAKGRFTISKTSSTTVTLQMTSLTAADTATYFCARVAYDDDGDSDAFDPWGPGTLVTVSS VL: AAVLTQTPSPVSAAVGGTVSISCQSSKSVYNKNWLSWFQQKPGQPPKLLIYGASTLASGVPSRFKGSGSGTQFTLTISGVQCDDAATYYCAGGYSSSSDTFAFGGGTEVVVK	binds
4A15 (antibody, IgG1, V domains shown, Rabbit monoclonal IgG1) VH: QSLEESGGGLVQPEGSLTLTCTASGVTLTNYYICWVRQAPGKGLEWIGCIDNVNGRTYYASWAKGRFTISKASSTTGTLQMTSLTAADTATYFCARSLATPLWGPGTLVTVSS VL: DIVMTQTPASVEAAVGGTVTIKCQASQNINSYLAWYQQKPGQPPKLLIYRASTLASGVPSRFKGSGSGTEFTLTISDLECADAATYYCQSYDDSRSISFFYAFGGGTEVVVK	binds
4G8 (antibody, IgG1, V domains shown, Rabbit monoclonal IgG1) VH: QEQLVESGGGLVQPEGSLTLTCAASGFSFSSSYFMCWVRQAPGKGLEWIACIAVGSSGSTYYASWAKGRFTISKTSSTTVTLQMTSLTAADTATYFCARVGYDDYGDSDAFDPWGPGTLVTVSS VL: AAVLTQTPSPVSAAVGGTVTINCQSSKSVYNKNWLSWFQQKPGQPPKLLIYGASTLASGVPSRFKGSGSGTQFTLTISDVQCDDVATYYCAGGYSSSSDTFAFGGGTEVVVK	binds
1I23 (antibody, IgG1, V domains shown, Rabbit monoclonal IgG1) VH: QEQLVESGGGLVQPKGSLTLTCAASGFSFSSSYFMCWVRQAPGKGLEWIACIGSGSSAISTFYASWAQGRFTISKTSSTTVTLQMTSLTAADTATYFCARVGYDDYGDSDAFDPWGPGTLVTVSS VL: AAVLTQTPSPVSAAVGGTVSISCQSSKSVYNKNWLSWFQQKPGQPPKLLIYGASTLASGVPSRFKGSGSGTQFTLTISDVQCDDAATYYCAGGYSSSSDTFAFGGGTEVVVK	binds

Please look at the following binder next.
*Q* Quick one: binding result of 7H4 (antibody, IgG1, V domains shown, Rabbit monoclonal IgG1) VH: QSLEESGGGLVKPGASLTLTCKASGSDFRSYYYICWVRQAPGKGLEWVACIGGGNTDATAYARWAKGRFTISKTSATTVALQMTSLTAADTATYFCVRGGPDNNVQFNLWGPGTLVTVSS VL: QAVVTQTPSSVSAAVGGTVTISCQSSQSVYSNNLLSWYQQKPGQPPKLLIYKASTLASGVPSRLKGSGSGTQFTLTISEVQCDDAATYYCQGYYSGVIYMFGGGTEVVVK ?
*A* binds

All values here come from patent US20250282887A1.
